value type: melting point

Incoming: Quick check: melting point of CCOC(=O)C(C#N)=NNc1ccccc1[N+](=O)[O-] ?
Outgoing: 102 to 103 °C

Incoming: Moving on to the next molecule: O=C(NCC[C@H](O)C(=O)O)OCc1ccccc1
Outgoing: 72 to 78 °C

Incoming: Thanks! And NNC(=S)NCCc1ccccc1 ?
Outgoing: 112 to 114 °C

Incoming: CC(=O)c1sc(-c2ccccc2)cc1N ?
Outgoing: 135 to 137 °C

Incoming: Another: CCOC(=O)c1c[nH]c2c(c1=O)CNN2C
Outgoing: 138 to 140 °C

Incoming: What about this molecule? O=C1C=C(NCCNc2ccccc2)C(=O)c2ccccc21
Outgoing: 140 to 142 °C

Incoming: Field entry: c1ccc2c(c1)[nH]c1cnccc12
Outgoing: 199 to 201 °C

Incoming: Repeat with CC1(O)CSC(C)(O)CS1 (centres undefined)
Outgoing: 64 to 65 °C

Incoming: Param item: Fc1ncccc1I
Outgoing: 45 to 46 °C

Incoming: // repeat for Cc1nc(C)c(CO)s1 and report
Outgoing: 56 to 57 °C

Incoming: Entry to check: CCOC(=O)c1cc(C(C)(C)C)nn1Cc1c(C)cc(C)cc1C
Outgoing: 72 to 74 °C

Incoming: How about this molecule: COc1ccc(CCl)c(C)c1CCl
Outgoing: 97 °C

Incoming: Same question for O=C1C=CCN1[C@@H](CO)c1ccccc1 please.
Outgoing: 103 °C

Incoming: Another molecule to look at: CC(C)(C)OC(=O)N=NC(=O)OC(C)(C)C
Outgoing: 90 to 92 °C

* * *

value type: melting point

Incoming: Given Cc1oc(S(=O)(=O)N2CCOCC2)cc1C(=O)O , state its recorded melting point.
Outgoing: 184 to 186 °C

Incoming: Same question for CC12CCC3C(CCC4CC(=NO)CCC43C)C1CCC2O (stereo not given) please.
Outgoing: 198 to 199 °C

Incoming: Try CCCCCCCCC(=O)Oc1ccc(/N=N/c2ccc(CCCC)cc2)cc1 next.
Outgoing: 50 to 53 °C

Incoming: What do you have for C/C(=N\CCO)c1c(O)c2ccccc2n(-c2ccccc2)c1=O ?
Outgoing: 201 to 202 °C

Incoming: Further, for Cc1nc(N)ccc1C#N ?
Outgoing: 155 to 156 °C

* * *

What melting point was measured for each of the following?

Incoming: Name the reported melting point value associated with the molecule Cc1c(C=O)cnn1-c1ccc(F)cc1
Outgoing: 113 to 115 °C

Incoming: Next molecule: O=[N+]([O-])c1cc(Cl)cnc1Cl
Outgoing: 38 to 42 °C

Incoming: Next molecule up: CON=C(c1cc2ccccc2o1)c1cc2ccccc2o1
Outgoing: 131 to 132 °C

Incoming: Moving on to O=C(O)CCCSSCCCC(=O)O
Outgoing: 105 to 110 °C

Incoming: Queued: Cn1nccc1N
Outgoing: 73 to 76 °C

Incoming: Queued: O=Cc1cc2cc(Br)ccc2o1
Outgoing: 129 to 130 °C

Incoming: Cc1ccc(F)cc1C#N , same question.
Outgoing: 43 to 45 °C

Incoming: // query: Cc1nc[nH]c1C=O
Outgoing: 165 to 166 °C

Incoming: And COc1ccc(C)cc1S(=O)(=O)Cl ?
Outgoing: 82 to 84 °C

Incoming: Entry to check: Cc1nc(-c2ccc(C(F)(F)F)cc2)sc1CBr
Outgoing: 64 to 65 °C

Incoming: Also Cc1cc(NN)nc(C)n1 ?
Outgoing: 189 to 190 °C

Incoming: Try this molecule too: O=C(NO)c1ccc(Cl)cc1O
Outgoing: 195 to 199 °C

Incoming: Lookup O=[N+]([O-])c1cc(C(F)(F)F)ccc1N1CCCC1
Outgoing: 54 to 56 °C

Incoming: One more molecule: O=[N+]([O-])c1cnccc1O
Outgoing: 271 to 273 °C

Incoming: Same thing, different molecule: O=C(O)c1c[nH]c2ccccc12
Outgoing: 200 to 203 °C

* * *

Exercise: state measured melting point for each of the molecules provided.

Incoming: # query: melting point of entry CCCCc1ccc(/N=N/c2ccc(O)cc2)cc1
Outgoing: 49 to 49.5 °C

Incoming: Now the same for O=Cc1ccccc1CN1CCOCC1
Outgoing: 67 to 68 °C

Incoming: Try N#Cc1cc2ccccc2cc1C#N next.
Outgoing: 253 to 257 °C

Incoming: // same read-out, input: CCOC(=O)c1cc(C)nc2ccc(Br)cc12
Outgoing: 110 to 111 °C

Incoming: Same thing, different molecule: O=S(=O)(Cl)c1cc(S(=O)(=O)Cl)c(Cl)s1
Outgoing: 79 to 84 °C

Incoming: Another molecule to check: COc1ccc(OC)c(C=CC(=O)O)c1
Outgoing: 147 to 150 °C

Incoming: Input N#Cc1ccc2c(c1)OCCO2
Outgoing: 104 to 106 °C

Incoming: And CSc1c(C#N)c(N)nc2c(/N=N/c3ccc(C(=O)O)cc3)c(N)nn12 ?
Outgoing: 305 to 307 °C

Incoming: And for Cc1cc(N)c(N)cc1Cl ?
Outgoing: 137 to 140 °C

Incoming: Subsequent entry: COc1ccc(C(O)C(=O)O)cc1 (centres undefined)
Outgoing: 108 to 111 °C

Incoming: Try COc1cc2c(cc1OC)C(c1ccc(Cl)cc1)N(C(C)=O)CC2 (centres undefined) next.
Outgoing: 130 to 132 °C

Incoming: Repeat with Cc1cc(C)c(CS(=O)(=O)Cc2c(C)cc(C)cc2C)c(C)c1
Outgoing: 297 to 300 °C

Incoming: Queued: COc1ccc(C(=O)c2cccc(Cl)c2)cc1[N+](=O)[O-]
Outgoing: 109 to 114 °C

Incoming: Can you handle CC(=O)OC1CCC2C3CCC4CC=CCC4(C)C3CCC12C (centres undefined) next?
Outgoing: 93 to 94 °C

* * *

Consider the following compounds; for each one, report its melting point.

Incoming: Entry under review: Cc1ccc(Oc2cccc(F)c2C#N)cc1 . Reported melting point?
Outgoing: 93 to 95 °C

Incoming: Same read-out for O=C=Nc1cccc2nsnc12 ?
Outgoing: 81 to 82 °C

Incoming: Repeat with C1CNCCCNCCNCCCNC1
Outgoing: 98 to 102 °C

Incoming: Field entry: NNC(=O)COc1ccccc1CSc1ccc(Cl)cc1
Outgoing: 118 to 121 °C

Incoming: Thanks! And Cc1nccnc1C ?
Outgoing: 11 to 13 °C

Incoming: Now consider CC(C)(C)OC(=O)NC(C)(C)C(=O)O and answer again.
Outgoing: 117 to 121 °C

Incoming: Now this one: CS(=O)(=O)N1CCNCC1
Outgoing: 99 to 100 °C

* * *

value type: melting point (°C)
Note: unit °C is implicit; provide only the numeric part.

Incoming: So what's the measured melting point for this one? CCC(OC(N)=O)C1CCCCC1 (stereo not drawn)
Outgoing: 128

Incoming: Check CC(C)(C)OC(=O)CC(=O)OC(C)(C)C too.
Outgoing: -6

Incoming: // query: O=c1c(O)c(O)c1=O
Outgoing: 293

Incoming: Query C#CC(=O)O next
Outgoing: 18

Incoming: One more compound: COc1ccc(C#N)c(OC)c1
Outgoing: 94

Incoming: Follow-up entry: CC(=O)OC1CCC2(C)C(=CCC3C4CC(C)C(=O)C4(C)CCC32)C1 (stereo not drawn)
Outgoing: 141

Incoming: Item: O=Cc1cccc(-c2ccncc2)c1
Outgoing: 48

Incoming: Now consider CCOC(=O)C(Cl)=Cc1cc(N2C(=O)C3=C(CCCC3)C2=O)ccc1Cl and answer again.
Outgoing: 112

Incoming: What about COc1cc(C=C(S)C(=O)O)ccc1O ?
Outgoing: 161

Incoming: Same question for COc1cc(-c2nnc3n2N=C(C(C)C)CS3)cc(OC)c1OC please.
Outgoing: 157

Incoming: What do you get for N#C/C(=C\c1ccccc1O)c1nc2ccccc2s1 ?
Outgoing: 188

Incoming: One more compound: CC(Cc1ccccc1)(C(=O)O)C(=O)O
Outgoing: 132

Incoming: Subsequent entry: Nc1ccc(C(F)(F)F)cc1[N+](=O)[O-]
Outgoing: 107

Incoming: // query: CN(C)CCc1c[nH]c2ccc(Cn3cncn3)cc12
Outgoing: 179

Incoming: Similarly, O=P(OCCCl)(OCCCl)OCCCl ?
Outgoing: -35

Incoming: Another compound to look at: CN1C(=O)C(=NNc2c(Br)cc(Br)cc2Br)C(=O)N(C)C1=O
Outgoing: 165

Incoming: Param item: O=C1CC(c2cccc(C3=NOC(=O)C3)c2)=NO1
Outgoing: 190

* * *

Give melting point for every item shown.

Incoming: Recorded melting point of O=C1CCC(c2ccc(NC(=O)c3cccc(C(F)(F)F)c3)cc2)=NN1 , please.
Outgoing: 234 to 235 °C

Incoming: Follow-up item: CNc1c(C=O)c(=O)oc2ccccc12
Outgoing: 215 to 216 °C

Incoming: Further, for CC(C)(C)OC(=O)N1CCN(c2ccc(C(=O)O)cn2)CC1 ?
Outgoing: 298 to 300 °C

Incoming: For CN1CCN(c2ccc(CO)cc2)CC1 then?
Outgoing: 118 to 119 °C

Incoming: Queued: O=[N+]([O-])c1ccc2c(c1)-c1cccc([N+](=O)[O-])c1C2
Outgoing: 284 to 288 °C

Incoming: And the next one, CCOC(=O)C(C#N)=c1sc(=C(C#N)C(=O)OCC)s1 ?
Outgoing: 159 to 162 °C

Incoming: Do the same for Cc1cc(C)cc(CC(=O)O)c1 please
Outgoing: 101 °C

Incoming: Lookup N#C/C(=C/c1ccccc1)c1ccc(Cl)cc1
Outgoing: 116 °C

Incoming: // repeat for CC(C)(C)OOC(C)(C)CCC(C)(C)OOC(C)(C)C and report
Outgoing: 8 °C

Incoming: One more molecule: CC(C)(C)c1ccc(-c2nnc(S)n2-c2cccc(C(F)(F)F)c2)cc1
Outgoing: 256 to 260 °C

Incoming: Subsequent entry: O=C(C=NO)Nc1cc(Cl)ccc1Cl
Outgoing: 198 to 201 °C

Incoming: Would you kindly repeat that for COc1ccc(C(N)=S)cn1 ?
Outgoing: 150 to 152 °C

Incoming: Moving on to Oc1ccc(CCc2nnc(S)n2-c2ccc(F)cc2)cc1
Outgoing: 204 to 205 °C
